system: RAW264.7; assay: Inhibition of LPS-induced nitric oxide production in mouse RAW264.7 cells after 24 hrs by Griess reaction; format: functional, cell-based; conditions: RAW264.7, 24 h
Measured Metric: IC50 (µM)

Problem: Which IC50 is reported with RAW264.7 for this entry: CC1=CCCC2[C@@]1(C)[C@@H](OC(=O)c1cccnc1)[C@H](OC(=O)c1cccnc1)[C@](C)(O)[C@]2(C)/C=C/C1=CC(=O)OC1 (some centres not stated) ?
Result: 26.3

Problem: Form field - read-out: IC50; system: RAW264.7; submitted item: CC1=CCCC2[C@@]1(C)[C@@H](OC(=O)c1ccccc1)[C@H](OC(=O)c1cccnc1)[C@](C)(O)[C@]2(C)/C=C/C1=CC(=O)OC1 (some centres not stated)
Result: 27.7

I: CC1=CC[C@@H](OC(=O)c2cccnc2)C2[C@@]1(C)[C@@H](OC(=O)c1cccnc1)C[C@]1(C)O[C@@]3(CC[C@]21C)COC(=O)C3 (some centres not stated)
II: CC1=CCCC2[C@@]1(C)[C@@H](OC(=O)c1cccnc1)[C@H](OC(=O)c1ccccc1)[C@](C)(O)[C@]2(C)/C=C/C1=CC(=O)OC1 (some centres not stated)
Problem: Which value of IC50 is greater, the one for I or the one for II ? Could you answer with the label of the item you picked?
Result: I
(I: 35.6 µM, II: 22.8 µM)

P: CC1=CC[C@@H](OC(=O)c2ccccc2)C2[C@@]1(C)[C@@H](OC(=O)c1cccnc1)[C@H](O)[C@]1(C)O[C@@]3(CC[C@]21C)COC(=O)C3 (some centres not stated)
Q: CC1=CC[C@@H](OC(=O)c2cccnc2)C2[C@@]1(C)[C@@H](OC(=O)c1cccnc1)[C@H](OC(=O)c1ccccc1)[C@]1(C)O[C@]3(CC[C@]21C)COC(=O)C3 (some centres not stated)
Problem: Compare IC50: is it lower for P or for Q ? Bench note: the answer is the label of the chosen record.
Result: Q
(Q: 21.5 µM, P: 34.2 µM)
